# Study target: acetylcholine receptor (Homo sapiens)
# Protocol text: SPR binding affinity (RU) of optimized 5mer/6mer/7mer peptides, Examples 6-7
# Setup conditions: SPR; XRRGVRR-7mer and RRGVRRX-7mer
Assign 1.0 whenever Binding affinity, values relative to the RRGVRR sequence does not fall below 100; assign 0.0 whenever it does.

3659 (DRRGVRR) [compound 3659]    1.0

Is Binding affinity, values relative to the RRGVRR sequence for 3668 (RRGVRRM) [compound 3668] at or above 100?
1.0

State whether the measured Binding affinity, values relative to the RRGVRR sequence reaches 100, counting equality as reaching it, for 3680 (RRGVRRE) [compound 3680]
0.0

Threshold query (Binding affinity, values relative to the RRGVRR sequence >= 100) on 3661 (RRGVRRG) [compound 3661]
1.0

Has 3644 (CRRGVRR) [compound 3644] a recorded Binding affinity, values relative to the RRGVRR sequence greater than or equal to 100?
1.0

Entry 3665 (RRGVRRP) [compound 3665] : is its Binding affinity, values relative to the RRGVRR sequence no less than 100?
1.0

Reported Binding affinity, values relative to the RRGVRR sequence at or above 100? 3678 (RRGVRRH) [compound 3678]
1.0

Threshold query (Binding affinity, values relative to the RRGVRR sequence >= 100) on 3679 (RRGVRRD) [compound 3679]
0.0

Reported Binding affinity, values relative to the RRGVRR sequence reaches at least 100 for 3643 (VRRGVRR) [compound 3643] ?
1.0

I'd appreciate it if you could say whether 3676 (RRGVRRK) [compound 3676] has Binding affinity, values relative to the RRGVRR sequence at least equal to 100.
1.0

API: above_or_equal(metric=Binding affinity, values relative to the RRGVRR sequence, cutoff=100) for item 3660 (ERRGVRR) [compound 3660]
0.0

Could you tell me if the measured Binding affinity, values relative to the RRGVRR sequence of 3662 (RRGVRRA) [compound 3662] reaches 100 or more?
1.0

---

# Study target: acetylcholine receptor (Homo sapiens, UniProt P02708)
# Sequence (P02708 21-457): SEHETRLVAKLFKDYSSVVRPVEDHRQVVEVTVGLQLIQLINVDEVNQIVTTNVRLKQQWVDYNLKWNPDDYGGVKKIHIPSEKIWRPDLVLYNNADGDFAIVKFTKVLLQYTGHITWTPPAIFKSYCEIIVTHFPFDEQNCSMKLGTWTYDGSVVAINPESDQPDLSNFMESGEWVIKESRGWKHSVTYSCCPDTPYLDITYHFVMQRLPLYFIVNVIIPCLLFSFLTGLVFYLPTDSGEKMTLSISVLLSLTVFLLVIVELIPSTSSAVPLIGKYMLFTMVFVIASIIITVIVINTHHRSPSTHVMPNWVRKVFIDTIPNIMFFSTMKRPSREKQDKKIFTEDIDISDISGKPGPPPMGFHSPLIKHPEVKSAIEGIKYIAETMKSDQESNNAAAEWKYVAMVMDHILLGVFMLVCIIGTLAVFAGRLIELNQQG
# Protocol text: SPR binding affinity (RU) of optimized 5mer/6mer/7mer peptides, Examples 6-7
# Setup conditions: SPR, Resonance Units; peptides tested at 10 μM; 6mer-1 Bottom sequence (Table 11)
Answer n if Binding affinity is under 20 Ru, and y if it is 20 Ru or more.

6mer-1-660 (KKYHVK)    y
6mer-1-765 (KRASPK)    y
6mer-1-647 (RKYNVR)    n
6mer-1-723 (RKMPAK)    y
6mer-1-763 (RRDCAK)    n

Form field: Binding affinity at least 20 Ru? Entry: 6mer-1-676 (KRCPWR)
n

Is reported Binding affinity greater than or equal to 20 Ru here: 6mer-1-706 (KRMKDR)
y

Check if Binding affinity >= 20 Ru (inclusive). Item: 6mer-1-767 (KRTPDK)
n

Reported Binding affinity at or above 20 Ru? 6mer-1-613 (KRIMKK)
n

Does the substance 6mer-1-784 (KKFTPK) have recorded Binding affinity that is 20 Ru or more?
y

Hi team, for 6mer-1-757 (RKDNEK) , is the recorded Binding affinity at or above 20 Ru?
y

// inclusive: Binding affinity at least 20 Ru? input: 6mer-1-714 (KRTSFK)
y

Item 6mer-1-761 (RKETFR) with Binding affinity of 20 Ru or above?
y

Is Binding affinity at least 20 Ru? Consider 6mer-1-783 (KKNEFK)
y

Given 6mer-1-768 (RKFEWK) , state whether its Binding affinity is at least 20 Ru.
y
